Origin of the recorded values: ChEMBL document CHEMBL1137432

target: Histamine H3 receptor (Homo sapiens, UniProt Q9Y5N1); assay: Displacement of [3H]histamine from human histamine H3 receptor transfected in SK-N-MC cells; type: cell-based
Sequence (Q9Y5N1 whole entry): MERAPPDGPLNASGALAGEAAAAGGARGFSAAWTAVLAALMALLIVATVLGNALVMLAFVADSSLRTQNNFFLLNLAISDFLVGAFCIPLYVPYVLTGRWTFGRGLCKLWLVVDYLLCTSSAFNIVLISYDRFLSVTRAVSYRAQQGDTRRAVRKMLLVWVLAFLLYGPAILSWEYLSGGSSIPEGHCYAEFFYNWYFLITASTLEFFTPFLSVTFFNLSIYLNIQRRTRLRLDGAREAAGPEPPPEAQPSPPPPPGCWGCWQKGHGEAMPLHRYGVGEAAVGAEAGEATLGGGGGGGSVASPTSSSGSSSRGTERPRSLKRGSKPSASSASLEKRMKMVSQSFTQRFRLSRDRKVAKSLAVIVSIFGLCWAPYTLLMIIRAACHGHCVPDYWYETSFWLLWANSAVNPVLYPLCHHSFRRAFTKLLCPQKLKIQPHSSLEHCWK
observed-property: pKi
Answers are plain numbers, as −log10 of the molar value.

Exercise: Report pKi for "CN1CCN(C2=Nc3ccc(Cl)cc3Oc3ccccc32)CC1" please.
Key: 5.04

----------
molecular target: Histamine H1 receptor (Homo sapiens, UniProt P35367); experiment: Activity at human histamine H1 receptor transfected in COS7 cells by NF-kappaB luciferase reporter assay
Sequence (P35367 whole entry): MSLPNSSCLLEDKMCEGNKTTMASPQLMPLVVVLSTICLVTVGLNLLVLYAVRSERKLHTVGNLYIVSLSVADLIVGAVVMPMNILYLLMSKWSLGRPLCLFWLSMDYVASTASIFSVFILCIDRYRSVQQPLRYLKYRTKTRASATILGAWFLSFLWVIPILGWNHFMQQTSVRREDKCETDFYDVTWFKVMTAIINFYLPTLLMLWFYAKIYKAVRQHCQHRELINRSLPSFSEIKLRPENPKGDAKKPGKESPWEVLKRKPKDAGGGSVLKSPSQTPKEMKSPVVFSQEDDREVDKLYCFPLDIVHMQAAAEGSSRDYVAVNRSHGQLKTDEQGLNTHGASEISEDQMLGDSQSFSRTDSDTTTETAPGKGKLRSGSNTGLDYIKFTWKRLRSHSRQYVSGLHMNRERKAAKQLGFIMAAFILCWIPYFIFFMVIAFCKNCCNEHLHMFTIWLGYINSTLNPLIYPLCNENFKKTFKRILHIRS
observed-property: pEC50
Numbers only, as −log10 of the molar value.

Exercise: What value of pEC50 has been recorded for this entry: "CN1CCN(C2=Nc3ccc(Cl)cc3Oc3ccccc32)CC1"
Key: 8.17
